assay: yeast display, Sf9 membrane polyspecificity reagent, FACS + sequencing; frameworks hold sequencing errors
quantity_measured: polyreactivity (PSR sort gate)

Use the examples below as a reference point.
- QVQLVESGGGLVQAGGSLRLSCAASGSTFSDNARGWYRQAPGKERELVAAIKETGGSTYYADSVKGRCTISRDNAKNTVYLQMNSLKPEDTAVYYCNADIDPYGATYAIEYDYWGQGTQVTVSS: low polyreactivity
- QVQLVESGGGLVQAGGSLRLSCAASGFTFRYYAMGWYRQAPGKERELVASINWSGGSTYYADSVKGRFTISRDNAKNTVYLQMNSLKPEDTAVYYCAADSIWGHYFARFDYWGQGTQVTVSS: high polyreactivity
- QVQLVESGGGLVQAGGSLRLSCAATGFTLTRNAMGWYRQAPGKERELVAAISWSGGTTYYADSVKGRFTISRDNAKNTFYLQMNSLKPEDTAVYYCAALRYKLPLGYWGQGTQVTVSS: high polyreactivity
- QVQLVESGGGLVQAGGSLRLSCAASGFIFYDYAMGWYRQAPGKERELVAAIRSSDGGTYYADSEKGPFTISRDNAKNTVYLQMNSLKPEDTAVDYCAAEIRWGWHPYYDYDEYWGQGTLVTVSS: low polyreactivity
- QVQLVESGGGLVQAGGSLRLSCAASGFTFQFYDMGWYRQAPGTEREFVATITSSGGSTYYADSVKGRFTISRDNAKNTVYLQMNSLKPEDPAVYYCANDKLFFYRVGSDYWGQGTQVTVSS: low polyreactivity

Input line: What value of measured polyreactivity (PSR sort gate) is listed for QVQLVESGGGLVQAGGSLRLSCAASGSIFPENAMGWYRQAPGKERELVAAINRGGSTYYADSVKGRFTISRDNAKNTVYLQMNSLKPVDTAVYYCAAEYSGWGYIFNYWGQGTQVTVSS ?
Output line: low polyreactivity

Input line: Moving on to the next sequence: QVQLVESGGGLVQAGGSLRLSCAASGRIFYGYAMGWYRQAPGKERDLVAGISYRGARTYYADSVKGRFTISRDNAKNTVYLQMTSLKPEDTAVYYCNAVPYYPFAFGALDYWGQGTQVTVSS
Output line: high polyreactivity

Input line: Also QVQLVESGGGLVQAGGSLRLSCAASGSIFKYYAMGWYRQAPGKERELVAAISYSGGRTYYADSVKGRFTISRDNAKNTVYLQMNSLKPEDTAVYYCNAELYPWPGVVRYNYWGQGTQVTVSS , if possible.
Output line: high polyreactivity

Input line: Item: QVQLVESGGGLVQAGGSLRLSCAASGRIFGGYTMGWYRQAPGKERELVAAITGSGGRTYYADSVKGRFTISRDNAKNTVYLQMNSLKPEDTAVYYCNTVYRYRYYWGQGTQVTVSS
Output line: high polyreactivity

Input line: // query: QVHLVESGGGLVQAGGSLRLSCAASGSTFYRYAMGWYRQAPGKERELVAAITTSGDSTYYADSVKGRFTISRDNAKNTVYLQMNSLKPEDTAIYDCNKVGRYSSYYWGQGSQVTVSS
Output line: high polyreactivity

Input line: Would you kindly repeat that for QVQLVESGGGLVQAGGSLRLSCAASGIIFQLYAMGWYRQAPGKERELVASITLSGTTTYYADSVKGRVTISRDNAKNTVYLQMNSLKPEDTAVYYCAKEYYYWGQGTQVTVSS ?
Output line: low polyreactivity

The reported measurements were obtained from the nanobody polyreactivity screen of Harvey et al. (2022).
